Assay: Short-term stability in spiked pooled human plasma (bench-top, 4 °C, 56 °C)
Conditions: validation standard 2xLLOV
Endpoint: Short-time stability (24h, RT, with daylight) Accuracy [%] (%)
Answers are plain numbers, in %.

These recorded examples may help you get a feel for the data.
Compound	Measured value
O=c1[nH]c(=O)n([C@H]2C[C@H](O)[C@@H](CO)O2)cc1C(F)(F)F [Trifluridine]	72.7
C=CC(=O)Nc1cc(Nc2nccc(-c3cn(C)c4ccccc34)n2)c(OC)cc1N(C)CCN(C)C [Osimertinib]	61.4

Hi team, please reply with Short-time stability (24h, RT, with daylight) Accuracy [%] for each item in this list.
1. CNC(=O)c1ccccc1Sc1ccc2c(/C=C/c3ccccn3)n[nH]c2c1 [Axitinib]
2. CO[C@@H]1[C@H](N(C)C(=O)c2ccccc2)C[C@H]2O[C@]1(C)n1c3ccccc3c3c4c(c5c6ccccc6n2c5c31)C(=O)NC4 [Midostaurin]
3. CCC1=C[C@@H]2CN(C1)Cc1c([nH]c3ccccc13)[C@@](C(=O)OC)(c1cc3c(cc1OC)N(C)[C@H]1[C@@](O)(C(=O)OC)[C@H](OC(C)=O)[C@]4(CC)C=CCN5CC[C@]31[C@@H]54)C2 [Vinorelbine]
4. CCCS(=O)(=O)Nc1ccc(F)c(C(=O)c2c[nH]c3ncc(-c4ccc(Cl)cc4)cc23)c1F [Vemurafenib]
5. CC(C)(C)c1nc(-c2cccc(NS(=O)(=O)c3c(F)cccc3F)c2F)c(-c2ccnc(N)n2)s1 [Dabrafenib]

A:
1. 107.5
2. 91.7
3. 78.0
4. 92.7
5. 98.0

###

Assignment: determine reported Autosampler (72h, 4°C) Accuracy [%] for the given compounds.
Assay: Autosampler stability of ready for injection samples
Format: physicochemical, human
Conditions: validation standard LLOV
Answers are plain numbers, in %.

These recorded examples may help you get a feel for the data.
> print(dat)
                                   compound  measured.value
1  NC(=O)c1cccc2cn(-c3ccc([C@@H]4CCCNC4)cc3)nc12 [Niraparib]            96.3
2  CCN(CC)CCNC(=O)c1c(C)[nH]c(/C=C2\C(=O)Nc3ccc(F)cc32)c1C [Sunitinib]           119.4
3  CNC(=O)c1cc(Oc2ccc(NC(=O)Nc3ccc(Cl)c(C(F)(F)F)c3)cc2)ccn1 [Sorafenib]           104.9
4  C[C@]12CC[C@H](O)CC1=CC[C@@H]1[C@@H]2CC[C@]2(C)C(c3cccnc3)=CC[C@@H]12 [Abiraterone]            94.9
5  COc1cc2nccc(Oc3ccc(NC(=O)C4(C(=O)Nc5ccc(F)cc5)CC4)cc3)c2cc1OC [Cabozantinib]            94.0
6  Cc1cc(Nc2ncc(Cl)c(Nc3ccccc3S(=O)(=O)C(C)C)n2)c(OC(C)C)cc1C1CCNCC1 [Ceritinib]            98.1

Hi team, please reply with Autosampler (72h, 4°C) Accuracy [%] for each item in this list.
1. Cn1cnc2c(F)c(Nc3ccc(Br)cc3F)c(C(=O)NOCCO)cc21 [Binimetinib]
2. COc1cc2ncnc(Nc3ccc(F)c(Cl)c3)c2cc1NC(=O)/C=C/CN1CCCCC1 [Dacomitinib]

A:
98.1
92.3

###

Assignment: determine reported Autosampler (24h, 4°C) Accuracy [%] for the given compounds.
Experiment: Autosampler stability of ready for injection samples
Type: physicochemical, human
Details: validation standard 2xLLOV
Be sure to follow the number with its unit.

> print(dat)
                                   compound                             endpoint  measured.value
1  Cc1cn(-c2cc(NC(=O)c3ccc(C)c(Nc4nccc(-c5cccnc5)n4)c3)cc(C(F)(F)F)c2)cn1  Autosampler (24h, 4°C) Accuracy [%]           97.8%

Hi team, please reply with Autosampler (24h, 4°C) Accuracy [%] for each item in this list.
1. CNC(=O)c1ccc(N2C(=S)N(c3ccc(C#N)c(C(F)(F)F)c3)C(=O)C2(C)C)cc1F [Enzalutamide]
2. CS(=O)(=O)CCNCc1ccc(-c2ccc3ncnc(Nc4ccc(OCc5cccc(F)c5)c(Cl)c4)c3c2)o1
3. O=C(c1cc(Cc2n[nH]c(=O)c3ccccc23)ccc1F)N1CCN(C(=O)C2CC2)CC1
4. C[C@H]1Oc2cc(cnc2N)-c2c(nn(C)c2C#N)CN(C)C(=O)c2ccc(F)cc21
5. C=CC(=O)Nc1cc(Nc2nccc(-c3cn(C)c4ccccc34)n2)c(OC)cc1N(C)CCN(C)C
6. O=C(Nc1cnn2ccc(N3CCC[C@@H]3c3cc(F)ccc3F)nc12)N1CC[C@H](O)C1
7. C=CC(=O)N1CCC[C@@H](n2nc(-c3ccc(Oc4ccccc4)cc3)c3c(N)ncnc32)C1
8. COc1cc2c(Nc3ccc(Br)cc3F)ncnc2cc1OCC1CCN(C)CC1

A:
1: 100.5%; 2: 99.4%; 3: 103.8%; 4: 101.6%; 5: 104.2%; 6: 87.6%; 7: 101.4%; 8: 103.5%

###

Assay: Long-term stability in spiked pooled human plasma
Conditions: validation standard MOV
Endpoint: Long-term stability, 1 month, -20°C Accuracy [%] (%)
Answers are plain numbers, in %.

These recorded examples may help you get a feel for the data.
> print(dat)
                                   compound  result.units  measured.value
1  COc1cc2nccc(Oc3ccc(NC(=O)C4(C(=O)Nc5ccc(F)cc5)CC4)cc3)c2cc1OC [Cabozantinib]             %            97.7
2  C[C@H]1Oc2cc(cnc2N)-c2c(nn(C)c2C#N)CN(C)C(=O)c2ccc(F)cc21             %            88.5
3  COc1cc2ncnc(Nc3ccc(F)c(Cl)c3)c2cc1OCCCN1CCOCC1             %           100.7
4  Nc1cccc2c1CN(C1CCC(=O)NC1=O)C2=O (centres unmarked) [Lenalidomide]             %            93.9
5  N#CC[C@H](C1CCCC1)n1cc(-c2ncnc3[nH]ccc23)cn1             %            95.8

Hi team, please reply with Long-term stability, 1 month, -20°C Accuracy [%] for each item in this list.
1. Cc1ccc(C(=O)Nc2ccc(CN3CCN(C)CC3)c(C(F)(F)F)c2)cc1C#Cc1cnc2cccnn12
2. Cc1ccc(Nc2nccc(N(C)c3ccc4c(C)n(C)nc4c3)n2)cc1S(N)(=O)=O
3. CC(=O)Nc1cccc(-n2c(=O)n(C3CC3)c(=O)c3c(Nc4ccc(I)cc4F)n(C)c(=O)c(C)c32)c1

A:
1: 92.3; 2: 96.3; 3: 105.2

###

Assignment: determine reported Autosampler (72h, 4°C) Accuracy [%] for the given compounds.
Assay: Autosampler stability of ready for injection samples
Assay type: physicochemical, human
Conditions: validation standard MOV
Give bare numbers, in %.

> print(dat)
                                   compound                             endpoint  measured.value
1  Cn1cnc2c(F)c(Nc3ccc(Br)cc3F)c(C(=O)NOCCO)cc21  Autosampler (72h, 4°C) Accuracy [%]            95.8
2  O=C1CCC(N2C(=O)c3ccccc3C2=O)C(=O)N1 (centres unmarked) [Thalidomide]  Autosampler (72h, 4°C) Accuracy [%]            96.2
3  COc1cc2ncnc(Nc3ccc(F)c(Cl)c3)c2cc1OCCCN1CCOCC1  Autosampler (72h, 4°C) Accuracy [%]           102.2

Hi team, please reply with Autosampler (72h, 4°C) Accuracy [%] for each item in this list.
1. CN(C)C/C=C/C(=O)Nc1cc2c(Nc3ccc(F)c(Cl)c3)ncnc2cc1O[C@H]1CCOC1
2. COc1cc2nccc(Oc3ccc(NC(=O)C4(C(=O)Nc5ccc(F)cc5)CC4)cc3)c2cc1OC [Cabozantinib]
3. N#CC[C@H](C1CCCC1)n1cc(-c2ncnc3[nH]ccc23)cn1
4. CS(=O)(=O)CCNCc1ccc(-c2ccc3ncnc(Nc4ccc(OCc5cccc(F)c5)c(Cl)c4)c3c2)o1
5. O=C(c1ccc(F)c(F)c1Nc1ccc(I)cc1F)N1CC(O)([C@@H]2CCCCN2)C1

A:
1: 103.4; 2: 103.5; 3: 99.7; 4: 101.5; 5: 103.1

###

Experiment: Long-term stability in spiked pooled human plasma
Settings: validation standard MOV
Endpoint: Long-term stability, 1 month, -80°C Accuracy [%] (%)
Numbers only, in %.

Hi team, please reply with Long-term stability, 1 month, -80°C Accuracy [%] for each item in this list.
1. C=CC(=O)Nc1cc(Nc2nccc(-c3cn(C)c4ccccc34)n2)c(OC)cc1N(C)CCN(C)C
2. Cn1cnc2c(F)c(Nc3ccc(Br)cc3F)c(C(=O)NOCCO)cc21
3. COc1cc2nccc(Oc3ccc(NC(=O)Nc4cc(C)on4)c(Cl)c3)c2cc1OC
4. CCc1cc2c(cc1N1CCC(N3CCOCC3)CC1)C(C)(C)c1[nH]c3cc(C#N)ccc3c1C2=O

A:
1: 96.6; 2: 94.4; 3: 95.0; 4: 83.9

Hi team, please reply with Long-term stability, 1 month, -80°C Accuracy [%] for each item in this list.
1. COc1cc2ncnc(Nc3ccc(F)c(Cl)c3)c2cc1OCCCN1CCOCC1
2. C[C@@H](Oc1cc(-c2cnn(C3CCNCC3)c2)cnc1N)c1c(Cl)ccc(F)c1Cl
3. O=c1[nH]c(=O)n([C@H]2C[C@H](O)[C@@H](CO)O2)cc1C(F)(F)F
4. CO[C@@H]1[C@H](N(C)C(=O)c2ccccc2)C[C@H]2O[C@]1(C)n1c3ccccc3c3c4c(c5c6ccccc6n2c5c31)C(=O)NC4

A:
1: 99.3; 2: 89.3; 3: 94.6; 4: 108.1

Origin of the recorded values: paper PMC8699473
